# System: bitter taste of an aqueous solution of KCl
# experiment: Sip and spit bitterness rating of aqueous KCl test solutions
# Type: in vivo, humans
# measurementContext: Homo sapiens; aqueous KCl 4.85 g/L, 1% EtOH; bitterness scored 0-15 vs KCl standard; dash = none of the tested conc.; read-out: Conc. Where Decrease in Bitter Taste Was Discerned
quantityKind: minimal effective concentration (µg/mL)
Give bare numbers, in µg/mL.

Example cases with answers are listed next.
[[record]]
compound = "COc1c(C(=O)CC(=O)c2ccccc2)ccc2occc12"
assaysystem = "bitter taste of an aqueous solution of KCl"
val = 1

[[record]]
compound = "CCCC(=O)OC/C=C(/C)CCC=C(C)C"
assaysystem = "bitter taste of an aqueous solution of KCl"
val = 1

[[record]]
compound = "COC(CC(C)CCCC(C)(C)O)OC (centres unmarked)"
assaysystem = "bitter taste of an aqueous solution of KCl"
val = 10

[[record]]
compound = "CC(C)CC(=O)O[C@@H]1C[C@@H]2CC[C@@]1(C)C2(C)C"
assaysystem = "bitter taste of an aqueous solution of KCl"
val = 1


Now look at this one.
### Prompt Give the reported minimal effective concentration for COc1ccc2c(c1)[nH]c1c(C)nccc12 (system: bitter taste of an aqueous solution of KCl).
### Response 40
